Data origin, for the record: ChEMBL document CHEMBL1275433

assay.text: Inhibition of Mycobacterium tuberculosis DNA gyrase GyrB/GyrA A83S, S84A, I85V, F96W and P101M mutant
// reported IC50 for each item listed
observable: IC50 (µM)

>>> numeric_result("CC1COc2c(N3CCN(C)CC3)c(F)cc3c(=O)c(C(=O)O)cn1c23 (stereo not drawn)")
7
>>> numeric_result("CCn1cc(C(=O)O)c(=O)c2ccc(C)nc21")
1080
>>> numeric_result("CCn1cc(C(=O)O)c(=O)c2cc(F)c(N3CCNCC3)nc21")
16

###

assay.text: Inhibition of Mycobacterium tuberculosis DNA gyrase GyrA M74I and A83S mutant/GyrB R447K mutant gene
observable: IC50 (µM)

>>> numeric_result("CCn1cc(C(=O)O)c(=O)c2ccc(C)nc21")
520
>>> numeric_result("CC1COc2c(N3CCN(C)CC3)c(F)cc3c(=O)c(C(=O)O)cn1c23 (centres undefined)")
11
>>> numeric_result("CCn1cc(C(=O)O)c(=O)c2cc(F)c(N3CCNCC3)nc21")
16
>>> numeric_result("COc1c(N2C[C@@H]3CCCN[C@@H]3C2)c(F)cc2c(=O)c(C(=O)O)cn(C3CC3)c12")
2

###

assay.text: Inhibition of Mycobacterium tuberculosis DNA gyrase GyrB/GyrA A83S mutant
// reported IC50 for each item listed
observable: IC50 (µM)

>>> numeric_result("CCn1cc(C(=O)O)c(=O)c2ccc(C)nc21 [NALIDIXIC ACID]")
950
>>> numeric_result("CCn1cc(C(=O)O)c(=O)c2cc(F)c(N3CCNCC3)nc21 [ENOXACIN]")
16
>>> numeric_result("CC1COc2c(N3CCN(C)CC3)c(F)cc3c(=O)c(C(=O)O)cn1c23 (stereo not drawn) [OFLOXACIN]")
7

###

assay.text: Inhibition of Mycobacterium tuberculosis DNA gyrase GyrB/GyrA M74I and A83S mutant
pIC50: −log10 of the molar value.
observable: pIC50

>>> numeric_result("COc1c(N2C[C@@H]3CCCN[C@@H]3C2)c(F)cc2c(=O)c(C(=O)O)cn(C3CC3)c12 [MOXIFLOXACIN]")
6.00
>>> numeric_result("CCn1cc(C(=O)O)c(=O)c2cc(F)c(N3CCNCC3)nc21 [ENOXACIN]")
5.05
>>> numeric_result("CC1COc2c(N3CCN(C)CC3)c(F)cc3c(=O)c(C(=O)O)cn1c23 (centres undefined) [OFLOXACIN]")
5.52
>>> numeric_result("CCn1cc(C(=O)O)c(=O)c2ccc(C)nc21 [NALIDIXIC ACID]")
3.07
